- TEST_TARGET: human orexin-1 receptor (Homo sapiens (Human), UniProt O43613)
- Sequence (O43613 whole entry): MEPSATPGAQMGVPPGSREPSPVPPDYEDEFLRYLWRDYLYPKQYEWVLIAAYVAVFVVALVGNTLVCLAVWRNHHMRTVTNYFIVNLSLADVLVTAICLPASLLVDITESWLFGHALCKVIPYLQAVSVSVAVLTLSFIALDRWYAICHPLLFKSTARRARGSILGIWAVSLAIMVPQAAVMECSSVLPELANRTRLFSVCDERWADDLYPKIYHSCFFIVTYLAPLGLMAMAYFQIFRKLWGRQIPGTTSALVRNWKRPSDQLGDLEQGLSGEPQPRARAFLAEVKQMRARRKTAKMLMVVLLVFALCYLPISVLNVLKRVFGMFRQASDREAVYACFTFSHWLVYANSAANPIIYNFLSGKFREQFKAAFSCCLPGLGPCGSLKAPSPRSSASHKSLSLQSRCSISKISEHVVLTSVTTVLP
- PROCEDURE_DETAILS: In vitro assay: intracellular calcium measurements (FLIPR), antagonistic activity
- TEST_CONTEXT: CHO cells expressing human orexin-1 receptor, orexin-A agonist, geometric mean, read-out: IC50 Ox1
READOUT_TYPE: IC50

Sample records with IC50:
> print(dat)
                           structure.string  experimental.result
1  C=C1C[C@@H](c2nc3ccc(Cl)c(C)c3[nH]2)N(C(=O)c2cc(C)c(C)cc2-n2nccn2)C1                11 nM
2  Cc1cccc(-c2ccc(C)cc2C(=O)N2CCC[C@@]2(C)c2nc3cc(C)c(C)cc3[nH]2)c1                 6 nM
3  Cc1cc2[nH]c([C@@H]3[C@@H](C)CCN3C(=O)c3c(F)cccc3-c3cccnc3)nc2cc1Cl                47 nM

Prompt line: # value lookup — system human orexin-1 receptor (Homo sapiens (Human), UniProt O43613), readout IC50, item Cc1nc(C(=O)N2CCC[C@@]2(C)c2nc3cc(OC(F)(F)F)ccc3[nH]2)c(-c2ccccc2C)s1
Response line: 88 nM

Prompt line: Give the reported IC50 for C=C1C[C@@H](c2nc3ccc(Cl)c(C)c3[nH]2)N(C(=O)c2nc(C)sc2-c2cc(C)cc(C)c2)C1 (system: human orexin-1 receptor (Homo sapiens (Human), UniProt O43613)).
Response line: 15 nM

Prompt line: Requested read-out IC50, target or system human orexin-1 receptor (Homo sapiens (Human), UniProt O43613), entry Cc1c(Cl)ccc2[nH]c([C@]3(C)CCCN3C(=O)c3nc(-c4ccccc4F)sc3-c3ccc(F)cc3)nc12
Response line: 5 nM

Prompt line: # get_value(readout= IC50, system= human orexin-1 receptor (Homo sapiens (Human), UniProt O43613)) for CSc1cccc2[nH]c([C@@H]3CCCN3C(=O)c3c(-n4nccn4)ccc(C)c3F)nc12
Response line: 68 nM

Prompt line: What value of IC50 on human orexin-1 receptor (Homo sapiens (Human), UniProt O43613) does Cc1ccc(-c2ccccn2)c(C(=O)N2CC[C@H](C)[C@H]2c2nc3c(C)c(Cl)ccc3[nH]2)c1 have?
Response line: 2 nM

Prompt line: Form entry - test system: human orexin-1 receptor (Homo sapiens (Human), UniProt O43613); read-out: IC50; compound: Cc1ccc(-n2nccn2)c(C(=O)N2CCC[C@@]2(C)c2nc3c(C)c(C)c(Br)cc3[nH]2)c1
Response line: 1 nM

Prompt line: # get_value(readout= IC50, system= human orexin-1 receptor (Homo sapiens (Human), UniProt O43613)) for Cc1ccc(-c2cccc(F)c2)c(C(=O)N2CCC[C@@]2(C)c2nc3cc(C)c(C)cc3n2C)c1
Response line: 9 nM

====

Known log10(IC50) of a selection of compounds
- TEST_TARGET: UniProt O43614
- Sequence (O43614 whole entry): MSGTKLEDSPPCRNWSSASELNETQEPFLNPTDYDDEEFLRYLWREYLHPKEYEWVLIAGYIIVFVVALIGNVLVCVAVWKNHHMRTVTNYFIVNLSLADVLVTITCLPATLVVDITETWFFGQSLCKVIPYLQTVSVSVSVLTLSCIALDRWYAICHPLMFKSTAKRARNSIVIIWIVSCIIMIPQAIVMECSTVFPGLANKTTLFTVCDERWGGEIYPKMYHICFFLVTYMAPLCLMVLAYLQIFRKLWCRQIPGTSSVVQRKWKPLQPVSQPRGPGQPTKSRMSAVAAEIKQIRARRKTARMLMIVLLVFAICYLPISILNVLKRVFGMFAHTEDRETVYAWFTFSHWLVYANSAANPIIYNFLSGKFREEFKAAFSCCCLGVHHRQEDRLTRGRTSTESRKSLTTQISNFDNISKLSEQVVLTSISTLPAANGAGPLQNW
- PROCEDURE_DETAILS: In vitro assay: intracellular calcium measurements (FLIPR), antagonistic activity
- TEST_CONTEXT: CHO cells expressing human orexin-2 receptor, orexin-A agonist, geometric mean, read-out: IC50 Ox2
Plainly stated, the numbers are log10 of IC50 given in nM.

These recorded examples may help you get a feel for the data.
> print(dat)
                                   compound  experimental.result
1  Cc1c(Cl)ccc2[nH]c([C@@H]3[C@@H](C)CCN3C(=O)c3ccccc3-n3nccn3)nc12                 1.83
2  Cc1nc(C(=O)N2CCC[C@@]2(C)c2nc3cc(OC(F)(F)F)ccc3[nH]2)c(-c2ccc(C)c(C)c2)s1                 1.90

Prompt line: Short answer please: log10(IC50), UniProt O43614, entry CSc1ccc2nc([C@@H]3CCCN3C(=O)c3nc(C)sc3-c3cccc(C(F)(F)F)c3)[nH]c2c1
Response line: 2.04

Prompt line: Form field - read-out: log10(IC50); system: UniProt O43614; submitted item: Cc1nc(C(=O)N2CCC[C@@]2(C)c2nc3c(C)cccc3n2C)c(-c2cccc(Cl)c2)s1
Response line: 0.30

Prompt line: Give recorded log10(IC50) with UniProt O43614 for the following compound: CO[C@@H]1C[C@@H](c2nc3ccc(Cl)c(C)c3[nH]2)N(C(=O)c2cc(C(F)(F)F)ccc2-n2nccn2)C1
Response line: 1.71

Prompt line: What reported log10(IC50) corresponds to Cc1nc(C(=O)N2CCCC2c2nc3cc(F)c(Br)cc3[nH]2)c(-c2cccc(Cl)c2)s1 (stereo not shown) on UniProt O43614?
Response line: 2.46

Prompt line: Under UniProt O43614: log10(IC50) value of COc1cc2nc([C@]3(C)CCCN3C(=O)c3cc(OC(F)(F)F)ccc3-n3nccn3)[nH]c2cc1OC ?
Response line: 1.88

====

- TEST_TARGET: human orexin-1 receptor (Homo sapiens (Human), UniProt O43613)
- PROCEDURE_DETAILS: In vitro assay: intracellular calcium measurements (FLIPR), antagonistic activity
- TEST_CONTEXT: CHO cells expressing human orexin-1 receptor, orexin-A agonist, geometric mean, read-out: IC50 Ox1
READOUT_TYPE: IC50 (nM)
Entry rule: numbers only, all in nM.

Please review the following examples before continuing.
> print(dat)
                                   molecule                               test.target  readout.type  experimental.result
1  Cc1cccc(-c2sc(C)nc2C(=O)N2CCC[C@@]2(C)c2nc3ccc(F)c(F)c3[nH]2)c1  human orexin-1 receptor (Homo sapiens (Human), UniProt O43613)          IC50                    3
2  Cc1cc2nc([C@@H]3[C@@H](C)CCN3C(=O)c3cc(Cl)ccc3-n3nccn3)[nH]c2cc1C  human orexin-1 receptor (Homo sapiens (Human), UniProt O43613)          IC50                    4
3  Cc1nc(C(=O)N2CCC[C@@]2(C)c2nc3c(C)c(C)c(Br)cc3[nH]2)c(-c2ccccc2C)s1  human orexin-1 receptor (Homo sapiens (Human), UniProt O43613)          IC50                    5
4  Cc1nc(C(=O)N2CC[C@H](C)[C@H]2c2nc3c(C)cc(Cl)cc3[nH]2)c(-c2cc(F)cc(F)c2)s1  human orexin-1 receptor (Homo sapiens (Human), UniProt O43613)          IC50                    4
5  Cc1nc(C(=O)N2CC[C@H](C)[C@H]2c2nc3cc(F)ccc3[nH]2)c(-c2cccc(Cl)c2)s1  human orexin-1 receptor (Homo sapiens (Human), UniProt O43613)          IC50                   28

Prompt line: Reported IC50, molecule CSc1cccc2nc([C@@H]3CCCN3C(=O)c3nc(C4CC4)sc3-c3ccc(F)cc3)[nH]c12 : ____
Response line: 26

Prompt line: Would you kindly share the measured IC50 for C[C@@]1(c2nc3cc(C(F)(F)F)c(Cl)cc3[nH]2)CCCN1C(=O)c1cc(OC(F)(F)F)ccc1-n1nccn1 ?
Response line: 27

Prompt line: Consider the molecule shown here: CSc1cccc2nc([C@@H]3CCCN3C(=O)c3ccccc3-c3ccc(C)c(C)c3)[nH]c12 What is its recorded IC50?
Response line: 5

Prompt line: Fill in the blank: the reported IC50 of COc1ccc(-n2nccn2)c(C(=O)N2CCC[C@@]2(C)c2nc3cc(C(F)(F)F)ccc3[nH]2)c1F is ____.
Response line: 64

Prompt line: Dear colleague, I am looking for the recorded IC50 of the following molecule: Cc1nc(C(=O)N2CCCC2c2nc3cc(Br)cc(C)c3[nH]2)c(-c2ccccc2)s1 (stereo not drawn)
Response line: 37

Prompt line: Dear colleague, I am looking for the recorded IC50 of the following molecule: C=C1C[C@@H](c2nc3cccc(C)c3[nH]2)N(C(=O)c2nc(C)ccc2-n2cccn2)C1
Response line: 1060

Prompt line: Look at this molecule and give its reported IC50. Cc1nc(C(=O)N2CCC[C@@]2(C)c2nc3cc(OC(F)(F)F)ccc3[nH]2)c(-c2cc(F)cc(F)c2)s1
Response line: 28

Prompt line: Which IC50 is reported for this molecule? Cc1ccc(-n2nccn2)c(C(=O)N2CCC[C@@]2(C)c2nc3c(C)c(Cl)ccc3n2C)n1
Response line: 1

Prompt line: Consider the molecule Cc1c(Cl)ccc2[nH]c([C@@H]3[C@@H](C)CCN3C(=O)c3cc(F)ccc3-c3ccccn3)nc12 and give its measured IC50.
Response line: 20

Prompt line: Tell me the measured IC50 of CSc1cccc2nc([C@@H]3CCCN3C(=O)c3cnc(C)nc3-c3cc(Cl)cc(Cl)c3)[nH]c12 , please.
Response line: 13
